Reference for the values: the supplement of paper PMC8975748

Task for the reader: assign each of the following compounds its reported z-score of prototroph abundance.
Tested on: Saccharomyces cerevisiae BY4741 SeMeCo community
Assay: z-score of prototroph abundance vs DMSO median; higher = larger share of this subpopulation than in DMSO controls
Settings: 10 µM; 24 h; SM minimal medium; subpopulation (auxotrophy): Prototroph
Structures can show the parent of a compound that is named as a salt.
# answer = number (no unit)

Report z-score of prototroph abundance for Nc1ccc(S(=O)(=O)Nc2ncccn2)cc1 [Sulfadiazine]
0.05

Tell me z-score of prototroph abundance reported for C[C@@H](c1ncncc1F)[C@](O)(Cn1cncn1)c1ccc(F)cc1F
-11.6

Specify reported z-score of prototroph abundance for the compound shown: O=C1CN(/N=C/c2ccc(-c3ccc([N+](=O)[O-])cc3)o2)C(=O)N1 [Dantrolene sodium]
2.09

Assign z-score of prototroph abundance to the following record: COc1ccc(CCN(C)CCCC(C#N)(c2ccc(OC)c(OC)c2)C(C)C)cc1OC (stereo unspecified) [Verapamil HCl]
-0.19

State its z-score of prototroph abundance for this compound: C[C@@H](NCCCc1cccc(C(F)(F)F)c1)c1cccc2ccccc12 [Cinacalcet HCl]
-0.37

Kindly indicate its recorded z-score of prototroph abundance. Item: CN[C@@H]1[C@H](O[C@H]2[C@H](O[C@H]3[C@H](O)[C@@H](O)[C@H](N=C(N)N)[C@@H](O)[C@@H]3N=C(N)N)O[C@@H](C)[C@]2(O)C=O)O[C@@H](CO)[C@H](O)[C@H]1O [Streptomycin sulfate]
0.05

Identify the reported z-score of prototroph abundance for the following entry. CCN(CC)CCOCCOC(=O)C1(c2ccccc2)CCCC1 [Pentoxyverine Citrate]
0.37

Give me measured z-score of prototroph abundance, please, for this compound: NC[C@@H]1O[C@H](O[C@H]2[C@@H](O)[C@H](O[C@@H]3[C@@H](O)[C@H](N)C[C@H](N)[C@H]3O[C@H]3O[C@H](CN)[C@@H](O)[C@H](O)[C@H]3N)O[C@@H]2CO)[C@H](N)[C@@H](O)[C@@H]1O [Neomycin sulfate]
0.99

# return recorded z-score of prototroph abundance for input CN(C)CCCC1(c2ccc(F)cc2)OCc2cc(C#N)ccc21 (stereo unspecified)
-0.34

Answer with the recorded z-score of prototroph abundance of CCCOc1ccc2c(c1)CC[C@@H]1[C@@H]2CC[C@]2(C)[C@@H](OC)CC[C@@H]12 only.
-1.13

Recall and state the measured z-score of prototroph abundance for CCCCCc1ccc(C)cc1O .
-0.1

Give the measured z-score of prototroph abundance for CCCCCCCCCCCC(=O)O
0.84

Hello, please tell me recorded z-score of prototroph abundance for this one: CCCCCCCCN=c1ccn(CCCCCCCCCCn2ccc(=NCCCCCCCC)cc2)cc1 [Octenidine Dihydrochloride]
-16.1

Respond only with z-score of prototroph abundance recorded for CCCc1cc(C(N)=S)ccn1 [Protionamide]
0.19

State, in one line, measured z-score of prototroph abundance of COc1cccc2c1C(=O)c1c(O)c3c(c(O)c1C2=O)C[C@@](O)(C(C)=O)C[C@@H]3O[C@H]1C[C@H](N)[C@H](O)[C@H](C)O1 [Daunorubicin HCl]
-0.6

Return the recorded z-score of prototroph abundance value; entry: Nc1ccc(S(=O)(=O)Nc2ccnn2-c2ccccc2)cc1
0.15
